Test system: SK-MEL-28
Test: NCI tumour cell line growth inhibition, 48 h
Calls of active or inactive are those of the source. Cut-off read from the data, not from the text of the source: active = GI50 up to about 1.1 µM and inactive = higher.
Classes used: 1 = active, 0 = inactive

- molecule: "CC(C)Oc1c(C2(c3ccccc3)SCCCS2)c(=O)c1=O"
  target system: "SK-MEL-28"
  assigned category: 0
- molecule: "COc1ccc(/C=C(\\Cl)c2ccc(OC)c(OC)c2)cc1OC"
  target system: "SK-MEL-28"
  assigned category: 0
- molecule: "CCC(=O)N(c1ccccc1)C(C)CN1CCC(O)(c2ccccc2)CC1 (centres undefined)"
  target system: "SK-MEL-28"
  assigned category: 0
- molecule: "O=C1C=CC(=O)C1(Br)Br"
  target system: "SK-MEL-28"
  assigned category: 0
- molecule: "CCOc1ccc2nc3nc(O)nc(C)c3c(NCCCN(CC)CC)c2c1"
  target system: "SK-MEL-28"
  assigned category: 0
- molecule: "CN(/N=C/c1ccccc1O)c1ccc2ccccc2n1"
  target system: "SK-MEL-28"
  assigned category: 0
- molecule: "O=[N+]([O-])c1ccc(-n2nc3ccc4c(no[n+]4[O-])c3[n+]2[O-])c([N+](=O)[O-])c1"
  target system: "SK-MEL-28"
  assigned category: 0
- molecule: "C/C(=N\\NC(=S)N(C)C)c1ncc[nH]1"
  target system: "SK-MEL-28"
  assigned category: 0
- molecule: "Cc1ccc(-n2cnc3c(N/N=C4\\SCC(=O)N4c4ccccc4)ncnc32)cc1"
  target system: "SK-MEL-28"
  assigned category: 0
- molecule: "CCOc1ccc2c(ccc(/C=C/c3cc(C)c4cccnc4c3O)[n+]2C)c1"
  target system: "SK-MEL-28"
  assigned category: 1
- molecule: "Cc1cc2[nH]c3c(C#N)c(-c4ccccc4)c(/C=N/c4ccc(Cl)cc4)c(=O)n3c2cc1C"
  target system: "SK-MEL-28"
  assigned category: 0
- molecule: "[O-][N+]1=[N+]([O-])[C@@H](c2ccccc2)[C@H]1c1ccccc1"
  target system: "SK-MEL-28"
  assigned category: 0
- molecule: "COc1ccc(/C=C/c2ccnc3ccccc23)cc1"
  target system: "SK-MEL-28"
  assigned category: 0
- molecule: "Cc1cc2nc(N3C(=O)/C(=C/c4cccc([N+](=O)[O-])c4)N=C3c3ccccc3)sc2cc1C"
  target system: "SK-MEL-28"
  assigned category: 0
- molecule: "O=C1Nc2ccc(Cl)c(I)c2C1=O"
  target system: "SK-MEL-28"
  assigned category: 0
- molecule: "Cc1ccccc1C(C#N)C(=O)C(=O)Nc1nc([N+](=O)[O-])cs1 (centres undefined)"
  target system: "SK-MEL-28"
  assigned category: 0
- molecule: "O=C(CSc1nc2ccccc2c(=O)n1-c1ccccc1)N/N=C1\\C(=O)Nc2ccc(F)cc21"
  target system: "SK-MEL-28"
  assigned category: 0
- molecule: "N#Cc1nc(CCC(C(=O)O)N2C(=O)c3ccccc3C2=O)oc1N (centres undefined)"
  target system: "SK-MEL-28"
  assigned category: 0
- molecule: "O=c1[nH]c(=O)n(C2OC(COP(=O)(O)OP(=O)(O)OC3OC(CO)C(O)C(O)C3O)C(O)C2O)cc1F (centres undefined)"
  target system: "SK-MEL-28"
  assigned category: 1

----------
Measured GI50 of individual entries
Test system: NCI-H522
Assay: NCI tumour cell line growth inhibition, 48 h
Active and inactive are the calls of the source. No stated cut-off is given here; in the data, active = GI50 up to about 1.1 µM and inactive = higher.

- compound: "Cc1cc(O)c2c(=O)c3ccccc3[nH]c2c1"
  GI50: "3.56 µM (inactive)"
- compound: "COc1ccc(-c2cc(=O)c3c(O)cc(O)cc3o2)cc1OC"
  GI50: "16.7 µM (inactive)"
- compound: "COc1ccc(N[S+]([O-])c2ccc(Cl)cc2)cc1 (stereo unspecified)"
  GI50: "16.2 µM (inactive)"
- compound: "O=C1c2ccccc2S[C@@H](O)[C@@H]2CCCN12"
  GI50: "> 100 µM (inactive)"
- compound: "CCCc1c[nH]c(-c2ccc(-c3cc(CCC)c(C=O)[nH]3)s2)c1"
  GI50: "16 µM (inactive)"
- compound: "COc1cc(/C=C2\\NC(=O)C3Cc4c(OC)c(C)c(OC)c(OC)c4C2N3C)c(OC)c(C)c1OC (stereo unspecified)"
  GI50: "99.5 µM (inactive)"

----------
System: 786-0
Test: NCI tumour cell line growth inhibition, 48 h
Activity calls are given as the source filed them. No stated cut-off is given here; in the data, active = GI50 up to about 1.1 µM and inactive = higher.
Possible outcomes: t (active), f (inactive)

- molecule: "O=C(O)CC1C(=O)OC2C3COC(=O)c4cc(O)c(O)c(O)c4-c4c(cc(O)c(O)c4O)C(=O)OC2C(OC(=O)c2cc(O)c(O)c4c2C1C(O)C(=O)O4)C(OC(=O)c1cc(O)c(O)c(O)c1)O3 (stereo not given)"
  assigned category: "f"
- molecule: "O=[N+]([O-])c1cc(C2SCc3nc4ccccc4n32)ccc1Cl (stereo not given)"
  assigned category: "f"
- molecule: "Fc1ccc(C(OCCN2CCC3CCC(C2)N3C/C=C/c2ccco2)c2ccc(F)cc2)cc1 (stereo not given)"
  assigned category: "f"
- molecule: "CO/C(=N\\N=C\\c1ccc(Cl)c(Cl)c1)c1ccncc1"
  assigned category: "f"
- molecule: "CN(C)CCNc1ncnc2nc(-c3ccccc3)c(-c3ccccc3)nc12"
  assigned category: "f"
- molecule: "CC(=O)NC1=C(C)C(=O)c2c(nc3n2CCC3O)C1=O (stereo not given)"
  assigned category: "f"
- molecule: "O=c1cc(NNc2cccc(F)c2)[nH]c(=O)[nH]1"
  assigned category: "f"
- molecule: "CC(C)(C)c1cc2c(O)c(c1)C(c1ccccc1)c1cc(C(C)(C)C)cc(c1O)Cc1cc(C(C)(C)C)cc(c1O)C(c1ccccc1)c1cc(C(C)(C)C)cc(c1O)C2 (stereo not given)"
  assigned category: "f"
- molecule: "COC(=O)C1=CNC(C(=O)OC)=NN1"
  assigned category: "f"
- molecule: "O=C(CSc1nnc(-c2ccc(/N=C\\c3ccc(Cl)cc3)cc2)o1)Nc1cccc([N+](=O)[O-])c1"
  assigned category: "f"
- molecule: "O=C(O)c1ccc(N2C=[N+]3C(=Nc4ccccc43)C2)cc1"
  assigned category: "f"
- molecule: "CC(C)(C)[Si](C)(C)OC[C@H](/C=C\\CCCC(=O)O)NC1(c2ccccc2)c2ccccc2-c2ccccc21"
  assigned category: "f"
- molecule: "COC(=O)NN=C1C(C)(C)C(=NNC(=O)OC)C1(C)C"
  assigned category: "f"
- molecule: "CC(C)Oc1c(C2(c3ccccc3)SCCCS2)c(=O)c1=O"
  assigned category: "f"
- molecule: "COc1ccc(-c2cc(=O)c3c(O)cc(O)cc3o2)cc1OC"
  assigned category: "f"
- molecule: "CC(=O)O[C@H]1CC[C@]2(C=O)[C@H]3CC[C@]4(C)[C@@H](C5=CC(=O)OC5)CC[C@]4(O)[C@@H]3CC[C@]2(O)C1 [STROPHANTHIDIN ACETATE]"
  assigned category: "t"
- molecule: "Cc1ccc(S(=O)(=O)OC2CN3CCC2CC3)cc1 (stereo not given)"
  assigned category: "f"
- molecule: "O=C(/C=C1/Nc2ccc([N+](=O)[O-])cc2N/C1=C/C(=O)c1ccc(Cl)cc1)c1ccccc1"
  assigned category: "f"
- molecule: "Cc1csc(NNC(=O)Nc2ccccc2)n1"
  assigned category: "f"
- molecule: "FC(F)(F)c1ccccc1/C=N/C12CC3CC(CC(C3)C1)C2"
  assigned category: "f"

----------
Test system: IGROV-1
Assay: NCI tumour cell line growth inhibition, 48 h
The source made the active and inactive calls. Cut-off read from the data, not from the text of the source: active = GI50 up to about 1.1 µM and inactive = higher.
Recorded GI50, one value per entry.
quantity measured: GI50

- molecule: "COC(=O)/C=C1\\C(CO[Si](C)(C)C(C)(C)C)OC(n2ccc(=O)[nH]c2=O)C1O (stereo unspecified)"
  target system: "IGROV-1"
  quantity measured: "GI50"
  meas value: "20 µM (inactive)"
- molecule: "c1ccc2c(c1)-c1ccccc1C2NC1=NCCO1"
  target system: "IGROV-1"
  quantity measured: "GI50"
  meas value: "16.4 µM (inactive)"
- molecule: "CCN(CC)C(=O)c1c(N2CCOCC2)cc(N(CC)CC)oc1=O"
  target system: "IGROV-1"
  quantity measured: "GI50"
  meas value: "> 100 µM (inactive)"
- molecule: "CN(C)CCNc1ncnc2nc(-c3ccccc3)c(-c3ccccc3)nc12"
  target system: "IGROV-1"
  quantity measured: "GI50"
  meas value: "> 100 µM (inactive)"
- molecule: "O=C1C(=O)N(c2nccs2)C(=O)C(=O)C1c1nc2ccccc2s1"
  target system: "IGROV-1"
  quantity measured: "GI50"
  meas value: "> 100 µM (inactive)"
- molecule: "ClC(Cl)=C1C(=C(Cl)Cl)C(Cl)(Cl)C1(Cl)Cl"
  target system: "IGROV-1"
  quantity measured: "GI50"
  meas value: "5.55 µM (inactive)"
- molecule: "Cc1csc(NNC(=O)Nc2ccccc2)n1"
  target system: "IGROV-1"
  quantity measured: "GI50"
  meas value: "> 100 µM (inactive)"
- molecule: "N#Cc1cnn2c1n[n+]([O-])c1ccc(Cl)cc12"
  target system: "IGROV-1"
  quantity measured: "GI50"
  meas value: "4.14 µM (inactive)"
- molecule: "O=c1[nH]c(Nc2nc3ccccc3[nH]2)nc2c1CCC2"
  target system: "IGROV-1"
  quantity measured: "GI50"
  meas value: "> 100 µM (inactive)"
- molecule: "CCCCCCOC(=O)/C=C/[C@]1(CO)C/C(=C/CC(C(C)C)C(C)C)C(=O)O1"
  target system: "IGROV-1"
  quantity measured: "GI50"
  meas value: "15.1 µM (inactive)"
- molecule: "COc1ccc(N[S+]([O-])CCCc2ccccc2)cc1 (stereo unspecified)"
  target system: "IGROV-1"
  quantity measured: "GI50"
  meas value: "72.6 µM (inactive)"
